Form field: pEC50 (one value per entry).
Biological target: human soluble guanylate cyclase alpha 1 and beta 1 subunits (sGC) (Homo sapiens (Human), UniProt Q02108+Q02153)
Sequence (Q02108 whole entry partner): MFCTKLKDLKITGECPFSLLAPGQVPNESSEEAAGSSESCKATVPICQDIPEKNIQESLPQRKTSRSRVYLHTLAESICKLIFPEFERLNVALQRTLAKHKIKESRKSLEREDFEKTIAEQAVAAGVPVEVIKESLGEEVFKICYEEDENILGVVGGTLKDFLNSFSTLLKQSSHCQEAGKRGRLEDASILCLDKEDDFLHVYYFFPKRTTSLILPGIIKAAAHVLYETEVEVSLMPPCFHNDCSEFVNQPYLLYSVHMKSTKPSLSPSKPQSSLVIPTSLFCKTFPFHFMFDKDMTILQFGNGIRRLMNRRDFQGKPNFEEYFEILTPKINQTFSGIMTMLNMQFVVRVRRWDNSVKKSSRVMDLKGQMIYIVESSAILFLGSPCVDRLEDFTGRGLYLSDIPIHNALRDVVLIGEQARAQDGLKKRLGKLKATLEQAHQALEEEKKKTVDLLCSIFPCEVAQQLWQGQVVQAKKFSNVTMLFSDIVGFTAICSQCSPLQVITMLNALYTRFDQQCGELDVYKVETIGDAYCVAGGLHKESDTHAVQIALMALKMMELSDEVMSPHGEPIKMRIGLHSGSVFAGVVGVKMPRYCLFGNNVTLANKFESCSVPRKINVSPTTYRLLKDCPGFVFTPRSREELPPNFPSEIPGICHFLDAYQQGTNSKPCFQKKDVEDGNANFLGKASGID
Sequence (Q02153 whole entry): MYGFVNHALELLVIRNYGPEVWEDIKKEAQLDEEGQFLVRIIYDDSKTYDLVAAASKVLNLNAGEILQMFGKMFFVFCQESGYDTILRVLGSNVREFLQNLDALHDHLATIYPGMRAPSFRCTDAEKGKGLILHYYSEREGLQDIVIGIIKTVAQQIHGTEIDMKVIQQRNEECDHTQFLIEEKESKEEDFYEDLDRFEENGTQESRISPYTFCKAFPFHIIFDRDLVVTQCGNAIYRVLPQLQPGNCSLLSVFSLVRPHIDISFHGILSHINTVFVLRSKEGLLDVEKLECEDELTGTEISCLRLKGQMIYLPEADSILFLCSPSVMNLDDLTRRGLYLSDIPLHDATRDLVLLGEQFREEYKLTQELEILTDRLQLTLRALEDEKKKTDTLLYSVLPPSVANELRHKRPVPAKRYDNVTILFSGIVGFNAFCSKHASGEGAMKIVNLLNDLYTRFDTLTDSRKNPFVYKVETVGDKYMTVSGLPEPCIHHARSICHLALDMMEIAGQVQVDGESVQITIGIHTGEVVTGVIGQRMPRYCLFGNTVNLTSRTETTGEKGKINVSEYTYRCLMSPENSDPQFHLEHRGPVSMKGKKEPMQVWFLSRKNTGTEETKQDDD
Experiment: sGC cellular activator assay (cGMP, HTRF), in the presence and absence of 50% human serum
Details: CHO cells stably expressing human sGC alpha 1/beta 1, preincubated with 40 microM ODQ; cGMP by HTRF; Table 2 does not state whether with or without 50% human serum
pEC50: −log10 of the molar value.

smiles: CO[C@H]1CN(c2cccc(-c3cccc(C)c3OCc3ccc4c(c3C)CCN(C3CCOCC3)CC4)n2)CC[C@H]1C(=O)O
pEC50: 8.05

smiles: Cc1cccc(-c2ccnc(N3C[C@@H]4C[C@]4(C(=O)O)C3)n2)c1OCc1ccc2c(c1C)CCN(C1CCOCC1)C2
pEC50: 7.37

smiles: Cc1ccc(OCc2ccc3c(c2C)CCN(C2CCOCC2)CC3)c(-c2csc(N3CC[C@@]4(C(=O)O)C[C@H]4C3)n2)c1
pEC50: 8.22

smiles: CO[C@@H]1CN(c2nc(-c3cccc(C)c3OCc3cc(F)c4c(c3)CCN(C3CCOCC3)CC4)cs2)CC[C@@H]1C(=O)O
pEC50: 8.40

smiles: CCO[C@@H]1CN(c2nc(-c3cc(C)ccc3OCc3cc(OC)c4c(c3F)CCN(C3CCOCC3)C4)cs2)CC[C@@H]1C(=O)O
pEC50: 8.70

smiles: Cc1c(COc2ccccc2-c2csc(N3CC[C@@]4(C(=O)O)C[C@H]4C3)n2)ccc2c1CCN(C1CCOCC1)C2
pEC50: 8.40

---

Target: human soluble guanylate cyclase alpha 1 and beta 1 subunits (sGC) (Homo sapiens (Human), UniProt Q02108+Q02153)
Assay: sGC cellular activator assay (cGMP, HTRF), in the presence and absence of 50% human serum
Conditions: CHO cells stably expressing human sGC alpha 1/beta 1, preincubated with 40 microM ODQ; cGMP by HTRF; Table 2 does not state whether with or without 50% human serum
pEC50: −log10 of the molar value.
Short version: pEC50 at least 8 is condition met, less is condition not met.

compound: Cc1ccc(OCc2cc(C)c3c(c2C)CCN(C2COC2)C3)c(-c2csc(N3CC[C@@]4(C(=O)O)C[C@H]4C3)n2)c1
answerLabel: condition not met
--
compound: Cc1ccc(OCc2ccc3c(c2C)CCN(C2CCOCC2)CC3)c(-c2csc(N3C[C@@H]4C[C@]4(C(=O)O)C3)n2)c1
answerLabel: condition not met
--
compound: COC[C@H]1N(c2cccc(-c3cccc(C)c3OCc3ccc4c(c3F)CCN(C3CCOC3)CC4)n2)C[C@@H]2C[C@@]21C(=O)O (stereo partly shown)
answerLabel: condition met
--
compound: Cc1cc(COc2c(C)cccc2-c2csc(N3CC[C@@]4(C(=O)O)C[C@H]4C3)n2)cc2c1CN(CC1COCCO1)CC2 (stereo partly shown) [Compound 93]
answerLabel: condition met
--
compound: CO[C@H]1CN(c2nc(-c3cccc(C)c3OCc3ccc4c(c3)[C@@H](C)CN(C3CCOCC3)CC4)cs2)CC[C@H]1C(=O)O
answerLabel: condition met
--
compound: Cc1cccc(-c2cccc(N3C[C@@H]4C[C@]4(C(=O)O)C3)n2)c1OCc1ccc2c(c1)CCN(C1COC1)CC2
answerLabel: condition met
--
compound: COc1cc(COc2c(C)cccc2-c2cccc(N3C[C@@H]4C[C@]4(C(=O)O)C3)n2)cc2c1CN(C1COC1)CC2
answerLabel: condition not met
--
compound: COC[C@H]1N(c2cccc(-c3cccc(C)c3OCc3cc(C)c4c(c3)CN(C3CCOCC3)C4)n2)C[C@@H]2C[C@@]21C(=O)O
answerLabel: condition not met
--
compound: COc1cc(COc2ccc(C)cc2-c2cccc(N3CC[C@H](C(=O)O)[C@H](OC)C3)n2)cc2c1CN(C1CCOCC1)CC2
answerLabel: condition not met
--
compound: CO[C@@H]1CN(c2nc(-c3cc(F)cc(C)c3OCc3ccc4c(c3)[C@@H](C)CN(C3CCOCC3)CC4)cs2)CC[C@@H]1C(=O)O
answerLabel: condition met
--
compound: CO[C@@H]1CN(c2nc(-c3cccc(C)c3OCc3ccc4c(c3C)CCN(C3COC3)C4)cs2)CC[C@@H]1C(=O)O
answerLabel: condition not met
